Tested on: heterotrimeric Gi1 protein
Assay: Binding of heterotrimeric Gi1 protein to model membranes (centrifugation, immunoblotting)
Conditions: phosphatidylcholine:phosphatidylethanolamine (6:4) 2 mM phospholipid, 0.1 μM D-PUFA; control 100 ± 5; in % (unit assumed)
READOUT: G protein binding
Returns: the value as a bare number; no unit string appended.

Query :: For CCC=CCC=CCC=CCC=CCC=CCC=CCC(O)C(=O)O (stereo not drawn) [226A1] , what is its reported G protein binding?
Result :: 422

Query :: // query: CCCCCC=CCC=CCC=CCC=CCCC(O)C(=O)O (stereo not drawn) [204A1]
Result :: 385

Query :: // query: CCC=CCC=CCC=CCCCCCCC(O)C(=O)O (stereo not drawn) [183A1, 2-hydroxy-9,12,15-octadecatrienoic acid]
Result :: 328

Query :: // query: CCC=CCC=CCC=CCC=CCC=CCCC(O)C(=O)O (stereo not drawn) [205A1]
Result :: 406

Query :: // query: CCCCCC=CCC=CCCCCCCC(O)C(=O)O (stereo not drawn) [182A1, 2-hydroxy-9,12-octadecadienoic acid]
Result :: 312

Query :: // query: CCCCCC=CCC=CCC=CCCCC(O)C(=O)O (stereo not drawn) [183A2, 2-hydroxy-6,9,12-octadecatrienoic acid]
Result :: 17

---

Tested on: brain cancer cell (glioma) U118
Assay: Brain cancer (glioma) U118 cell growth
Type: cell-based
Conditions: 72 hours of incubation
Would you kindly list pIC50 for each of these molecules?
Answer as the number alone; pIC50 is minus log10 of concentration in mol/L.

Query :: For CCC=CCC=CCC=CCCCCCCC(O)C(=O)O (centres unmarked) [183A1, 2-hydroxy-9,12,15-octadecatrienoic acid] , what is its reported pIC50?
Result :: 3.40

Query :: // query: CCCCCC=CCC=CCCCCCCC(C)C(=O)OC (centres unmarked)
Result :: 3.62

Query :: // query: CCCCCC=CCC=CCC=CCC=CCCC(OC)C(=O)OC (centres unmarked)
Result :: 3.58

Query :: // query: CCC=CCC=CCC=CCCCCCCC(OP(=O)(OCC)OCC)C(=O)OCC (centres unmarked)
Result :: 3.51

Query :: // query: CCC=CCC=CCC=CCCCCCCC(CO)C(=O)OCC (centres unmarked)
Result :: 3.55

---

Assay: Serum cholesterol, triglycerides and glucose in SHR rats (colorimetric)
Format: in vivo, rat
Conditions: 200 mg/kg daily p.o., 28 days, untreated rats 100%
Would you kindly list Glucose in serum (bottom number) for each of these compounds?
Write down the numeric answer in % and omit the unit.

Query :: For CCC=CCC=CCC=CCC=CCC=CCCC(C)C(=O)[O-].[Na+] (centres unmarked) , what is its reported Glucose in serum (bottom number)?
Result :: 85

Query :: // query: CCCCCC=CCC=CCCCCCCC(C)C(=O)OCC (centres unmarked)
Result :: 90

Query :: // query: CCC=CCC=CCC=CCC=CCC=CCCC(O)C(=O)OP(=O)(OCC)OCC (centres unmarked)
Result :: 82

Query :: // query: CCCCCC=CCC=CCCCCCCC(C)C(=O)[O-].[Na+] (centres unmarked)
Result :: 94

Query :: // query: CCCCCC=CCC=CCC=CCCCC(OC=O)C(=O)OCC (centres unmarked)
Result :: 88

Query :: // query: CCCCCC=CCC=CCC=CCCCC(C)C(=O)OCC (centres unmarked)
Result :: 92

Query :: // query: CCC=CCC=CCC=CCCCCCCC(OC=O)C(=O)OCC (centres unmarked)
Result :: 79

Query :: // query: CCC=CCC=CCC=CCC=CCC=CCCC(OC=O)C(=O)OCC (centres unmarked)
Result :: 84

Query :: // query: CCCCCC=CCC=CCCCCCCC(O)C(=O)[O-].[Na+] (centres unmarked)
Result :: 87

Query :: // query: CCCCCC=CCC=CCC=CCC=CCCC(O)C(=O)[O-].[Na+] (centres unmarked)
Result :: 89

Query :: // query: CCC=CCC=CCC=CCCCCCCC(O)C(=O)OP(=O)(OCC)OCC (centres unmarked)
Result :: 76

Query :: // query: CCCCCC=CCC=CCC=CCC=CCCC(O)C(=O)O (centres unmarked)
Result :: 85

Query :: // query: CCC=CCC=CCC=CCCCCCCC(C)C(=O)[O-].[Na+] (centres unmarked)
Result :: 85

Query :: // query: CCCCCC=CCC=CCCCCCCC(O)C(=O)O (centres unmarked) [182A1, 2-hydroxy-9,12-octadecadienoic acid]
Result :: 84

Query :: // query: CCCCCC=CCC=CCC=CCC=CCCC(O)C(=O)OP(=O)(OCC)OCC (centres unmarked)
Result :: 84

Query :: // query: CCC=CCC=CCC=CCC=CCC=CCC=CCC(O)C(=O)O (centres unmarked)
Result :: 79

Query :: // query: CCCCCC=CCC=CCC=CCC=CCCC(C)C(=O)[O-].[Na+] (centres unmarked)
Result :: 91

Query :: // query: CCCCCC=CCC=CCCCCCCC(OC=O)C(=O)OCC (centres unmarked)
Result :: 93

Query :: // query: CCC=CCC=CCC=CCCCCCCC(C)C(=O)OCC (centres unmarked)
Result :: 84

Query :: // query: CCC=CCC=CCC=CCC=CCC=CCCC(C)C(=O)OCC (centres unmarked)
Result :: 86

Query :: // query: CCCCCC=CCC=CCC=CCCCC(C)C(=O)[O-].[Na+] (centres unmarked)
Result :: 92

Query :: // query: CCC=CCC=CCC=CCCCCCCC(O)C(=O)O (centres unmarked) [183A1, 2-hydroxy-9,12,15-octadecatrienoic acid]
Result :: 87

Query :: // query: CCC=CCC=CCC=CCCCCCCC(O)C(=O)[O-].[Na+] (centres unmarked)
Result :: 84

Query :: // query: CC/C=C\C/C=C\C/C=C\C/C=C\C/C=C\C/C=C\CC(O)C(=O)[O-].[Na+] (centres unmarked)
Result :: 81

Query :: // query: CCCCCC=CCC=CCC=CCCCC(O)C(=O)OP(=O)(OCC)OCC (centres unmarked)
Result :: 85

Query :: // query: CCC=CCC=CCC=CCC=CCC=CCCC(O)C(=O)O (centres unmarked)
Result :: 82

Query :: // query: CCCCCC=CCC=CCC=CCCCC(O)C(=O)[O-].[Na+] (centres unmarked)
Result :: 86

Query :: // query: CCCCCC=CCC=CCCCCCCC(O)C(=O)OP(=O)(OCC)OCC (centres unmarked)
Result :: 89

Query :: // query: CCCCCC=CCC=CCC=CCC=CCCC(C)C(=O)OCC (centres unmarked)
Result :: 82

Query :: // query: CCCCCC=CCC=CCC=CCCCC(O)C(=O)O (centres unmarked) [183A2, 2-hydroxy-6,9,12-octadecatrienoic acid]
Result :: 82

Query :: // query: CCCCCC=CCC=CCC=CCC=CCCC(OC=O)C(=O)OCC (centres unmarked)
Result :: 87

Query :: // query: CCC=CCC=CCC=CCC=CCC=CCCC(O)C(=O)[O-].[Na+] (centres unmarked)
Result :: 87
